SYSTEM NAME: Androgen Receptor (Homo sapiens)
Construct: endogenous in cells; host or cells: VCaP cells
Sequence (P10275 whole entry): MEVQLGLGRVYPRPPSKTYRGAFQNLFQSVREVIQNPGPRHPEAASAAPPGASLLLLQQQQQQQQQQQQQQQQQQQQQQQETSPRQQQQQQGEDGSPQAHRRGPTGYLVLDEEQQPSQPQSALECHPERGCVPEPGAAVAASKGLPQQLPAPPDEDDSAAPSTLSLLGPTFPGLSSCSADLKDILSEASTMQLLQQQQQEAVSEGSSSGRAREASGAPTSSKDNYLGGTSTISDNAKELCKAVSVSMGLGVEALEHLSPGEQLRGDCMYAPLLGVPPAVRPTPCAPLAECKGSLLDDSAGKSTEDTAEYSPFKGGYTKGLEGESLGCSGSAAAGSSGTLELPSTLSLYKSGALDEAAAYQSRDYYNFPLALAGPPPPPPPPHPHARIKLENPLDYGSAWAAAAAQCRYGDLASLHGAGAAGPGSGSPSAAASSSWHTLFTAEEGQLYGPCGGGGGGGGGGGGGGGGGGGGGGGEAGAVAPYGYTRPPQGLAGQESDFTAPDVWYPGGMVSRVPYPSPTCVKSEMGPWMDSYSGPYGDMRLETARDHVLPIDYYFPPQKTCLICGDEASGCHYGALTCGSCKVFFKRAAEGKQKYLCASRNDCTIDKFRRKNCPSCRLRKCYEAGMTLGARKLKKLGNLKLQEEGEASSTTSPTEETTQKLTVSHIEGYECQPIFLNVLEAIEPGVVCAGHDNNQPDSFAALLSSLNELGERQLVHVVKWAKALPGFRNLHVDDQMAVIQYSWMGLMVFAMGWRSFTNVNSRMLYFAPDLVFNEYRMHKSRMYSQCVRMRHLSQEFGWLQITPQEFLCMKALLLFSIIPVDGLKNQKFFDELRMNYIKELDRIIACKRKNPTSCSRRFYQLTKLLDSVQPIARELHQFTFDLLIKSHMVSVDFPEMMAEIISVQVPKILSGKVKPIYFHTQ
PROCEDURE SUMMARY: Androgen Receptor ELISA assay (PathScan AR ELISA) in VCaP cells: AR degradation, Dmax and DC50
Format: cell-based
REPORTED CONDITIONS: VCaP, VCaP cells; highest percentage of Androgen Receptor degradation; read-out: VCaP Dmax (%)
Field: Dmax. Provide a value for each of the compounds that follow.

Recorded Dmax, per entry:
CHEMICAL SMILES	SYSTEM NAME	ASSAY ENDPOINT	TEST VALUE
Cc1ncsc1-c1ccc([C@H](C)NC(=O)[C@@H]2C[C@@H](O)CN2C(=O)[C@@H](NC(=O)COCCCCOc2ccc(-c3ccc(N4C(=S)N(c5cnc(C#N)c(C(F)(F)F)c5)C(=O)C4(C)C)c(F)c3)cc2)C(C)(C)C)cc1	Androgen Receptor (Homo sapiens)	Dmax	> 71%
CC(C)(C)[C@H](NC(=O)COCCCCOc1ccc(-c2ccc(N3C(=S)N(c4cnc(C#N)c(Cl)c4)C(=O)C3(C)C)cc2)cc1)C(=O)N1C[C@H](O)C[C@H]1C(=O)NCc1ccc(-c2cnco2)cc1	Androgen Receptor (Homo sapiens)	Dmax	51 to 70%

Input line: Fill in Dmax for record `Cc1ncsc1-c1ccc([C@H](C)NC(=O)[C@@H]2C[C@@H](O)CN2C(=O)[C@@H](NC(=O)COCCCCOc2ccc(-c3ccc(N4C(=S)N(c5cnc(C#N)c(C(F)(F)F)c5)C(=O)C4(C)C)cc3)cc2)C(C)(C)C)cc1`
Output line: > 71%
